// provenance: ChEMBL document CHEMBL1201862

Consider the following compounds and their measured GI50 readings.
Test system: OVCAR-4
ASSAY INFO: NCI tumour cell line growth inhibition, 48 h
The source made the active and inactive calls. No stated cut-off is given here; in the data, active = GI50 up to about 1.1 µM and inactive = higher.

Below, 3 compounds whose answers are already recorded.
N#Cc1ccc(C(C2C(=O)NC(=O)NC2=O)C2C(=O)NC(=O)NC2=O)cc1 : > 100 µM (inactive)
O=C(NCc1cccnc1)C(=O)NCc1cccnc1 : > 100 µM (inactive)
COCC(=O)CP(=O)(OC)OC : > 100 µM (inactive)

What value of measured GI50 is listed for "COc1ccc2[nH]c3c(c2c1)CCc1c(OC)cccc1-3" ?
40.3 µM (inactive)

Entry "O=C(O)[C@@H]1OCCOCCO[C@@H](C(=O)O)[C@H](C(=O)O)OCCOCCO[C@H]1C(=O)O" has what GI50?
> 100 µM (inactive)

What value of GI50 has been recorded for this entry: "CC1(C)CC(=O)c2c(N)n[nH]c2C1"
> 100 µM (inactive)
